assay: NCI Yeast Anticancer Drug Screen. Data for the rad50 strain (AID 155); conditions: S. cerevisiae rad50 strain growth inhibition; at 5.0 µM (retest, dose inferred, filed as 0.5)
The panel holds about 79,000 compounds, 15% with a hit somewhere; the sample as a whole holds those more often. Calls of active or inactive are those of the source. Cut-off read from the data, not from the text of the source: active = growth inhibition above about 70%; inactive = the rest.
Hello, when you answer, please use one of the following outcomes: Y (active), N (inactive)

Exam item: // outcome(item) with item = CCC[CH2][Sn]1([CH2]CCC)[O]C(=O)c2cccnc2[S]1
Marked response: N

Exam item: Record lookup: outcome of this test for COc1ccccc1[As]=[As]c1ccccc1OC (stereo unspecified) ?
Marked response: N

Exam item: Which outcome was entered for the molecule [Cl][Hg][c]1ccc(Cl)s1 in this test?
Marked response: Y

Exam item: For this molecule, state the assay outcome: [N-]=[N+]=Nc1c([N+](=O)[O-])c(=O)n2c3c(cccc13)CCC2
Marked response: N

Exam item: Tell me the assay call for Clc1ccccc1C#[C][Hg][C]#Cc1ccccc1Cl please.
Marked response: N

Exam item: Call for entry C=NCC#N :
Marked response: N
